Biological target: T1, HLA-A02.01 (human)
T1 construct: Purified class I MHC
Assay: competition with radiolabeled reference peptide, purified MHC I
pIC50: −log10 of the molar value.
Would you mind labelling by pIC50? At or over 7 is criterion met, under is criterion not met.

Reference set (4 entries):
{"columns": ["BINDER", "GROUP LABEL"],
 "data": [
  ["NSFEVCVCA (also called TP53, R273C)", "criterion not met"],
  ["GLLAFWDSQV (also called TP53, AAVG)", "criterion met"],
  ["CMGGMNQRPI (also called TP53, R248Q)", "criterion not met"],
  ["RLSSCVPVAL (also called TGFBR2(-1))", "criterion met"]
]}

In: # check: pIC50 of GLVDEQQEV (also called SF3B1, K700E) is greater than or equal to 7
Out: criterion met

In: Hi team, for GMNQRPILT (also called TP53, R248Q) , is the recorded pIC50 at or above 7?
Out: criterion not met

In: Confirm if pIC50 reported for the binder LLGRNSFEVC (also called TP53, R273C) is 7 or above.
Out: criterion not met

In: Has KSLVRLSSCV (also called TGFBR2(-1)) a recorded pIC50 greater than or equal to 7?
Out: criterion not met

In: Hi team, for ALNSEALSV (also called TMPRSS2: ERG) , is the recorded pIC50 at or above 7?
Out: criterion met

In: Threshold query (pIC50 >= 7) on LVRLSSCVPV (also called TGFBR2(-1))
Out: criterion not met

In: Please indicate if the recorded pIC50 for KKLMLLRLNL (also called SEC31A(-1)) meets or exceeds 7.
Out: criterion not met
